Entry source: patent US20220088180A1

Study System: HLA-A*02:01 (human)
Test Protocol: radioligand competition, purified MHC
pIC50: −log10 of the molar value.
Endpoint Name: pIC50

- Binder: "APHGHVMVEL (modifications not checked) [… (SEQ ID NO: 14)]"
  Test Value: "< 4.15"
- Binder: "MLLGSMLYM (modifications not checked) [… (SEQ ID NO: 4)]"
  Test Value: "> 9.30"

// query Which pIC50 reading was recorded for the binder GLITLSYHL (modifications not checked) [… (SEQ ID NO: 5)] ?
// result > 9.30
